- experimental-details: in vivo
- test-context: wild-type, zebrafish (Danio rerio), in vivo, LC50, zebrafish embryos; Figure 5 toxicity scale
Threshold check on LC50: strictly below 90 µM is fulfilled; on or above 90 µM is not fulfilled.

Query block: Is it true that LC50 reported for CCCCCCCCCCC[C@@H](C[C@@H]1OC(=O)[C@H]1CCCCCC)OC(=O)[C@H](CC(C)C)NC=O is less than 90 µM?
Result block: fulfilled

Query block: Is it true that LC50 reported for C=CCc1ccc(O)c(OC)c1 is less than 90 µM?
Result block: not fulfilled

Query block: Is it true that LC50 reported for CCc1ccc(N(Cc2ccccc2Br)C(=O)/C=C/c2ccccc2)cc1 is less than 90 µM?
Result block: not fulfilled

Query block: Is it true that LC50 reported for CCc1cc2c3c(c1)C(c1ccccc1)CC(=O)N3Cc1ccccc1-2 (centres unmarked) is less than 90 µM?
Result block: fulfilled

Reference source for all entries: paper PMC9741109
